Cited source: the supplement of paper PMC9170038

System: MS2 coat protein
Measurement description: apparent KD of MS2 coat protein; designed switch direction (-1 OFF switch, 1 ON switch): 1; higher = weaker reporter binding
Assay setup: Eterna round: R95; input ligand: none

>  <Sequence>
CGAUGAUACUUAGGAAAGAGAGUAGAGGAACAUGAGGAUCACCCAUGUAUGAGCUUUUUGCUCGUCAUGAACAGGAA [JR_SHM208a_Sub008] (puzzle: Sensor for hsa-mir-208a)

>  <apparent KD of MS2 coat protein (nM)>
168

$$$$
>  <Sequence>
GGUCCAGCCUGAGCUGGACAAAAGCAUGUACAUGAGGAUCACCCAUGUUCAUGUACAAGCUUUUUGCUCGUCUUACC [salish99_208a_r3_090x] (puzzle: Sensor for hsa-mir-208a)

>  <apparent KD of MS2 coat protein (nM)>
823

$$$$
>  <Sequence>
GGAGCCGGCACCGAGGAUAUUCAUAUUAAAACAUGAGGAUCACCCAUGUAGGUCAAAAGACCUUGGGAGAAGGCGGAUCGGCUCG [Xeonanis - 31] (puzzle: Same State 2)

>  <apparent KD of MS2 coat protein (nM)>
481

$$$$

----------
Measured apparent KD of MS2 coat protein values are reported for all entries that follow.
Test system: MS2 coat protein
Measurement description: apparent KD of MS2 coat protein; designed switch direction (-1 OFF switch, 1 ON switch): -1; higher = weaker reporter binding
Assay setup: Eterna round: R95; input ligand: microRNA oligo, concentration not stated

>  <Sequence>
CUGGUCCGAGGAUAUAUGAUGUGAAACAUGAGGAUCACCCAUGUAAUAUUAUGGAUGAAAAUAGAAGGCGGACUAG [Mat - Exclusion 5 - JL mod - D37] (puzzle: Exclusion 5)

>  <apparent KD of MS2 coat protein (µM)>
0.0661

$$$$
>  <Sequence>
CUUCGACAUGAGGAUCACCCAUGUCAGGAUAUUGUGUAUCUGGUUUUUUACAGAUAGACAAGAAGGGAUGUGUU [LRO-Excl1-01] (puzzle: Exclusion 1)

>  <apparent KD of MS2 coat protein (µM)>
0.0252

$$$$
>  <Sequence>
GUGAAACAUGAGGAUCACCCAUGUCAGGAUAUGAUACUAUGUACUUCGGUACAUAGUAUCAGAAGGGACAGUGA [Ex1-3: 3] (puzzle: Exclusion 1)

>  <apparent KD of MS2 coat protein (µM)>
0.0744

$$$$
>  <Sequence>
UUUCCCUGUGUGAGGAUAUACUUGUUUGGGUUUUUGUAGAAGGCACAUGAGGAUCACCCAUGUAUUUUGUCGUG [JR_BME4_Sub020] (puzzle: Brourd's mod of Exclusion 4)

>  <apparent KD of MS2 coat protein (µM)>
0.0409

$$$$
>  <Sequence>
GAUUGACAUGAGGAUCACCCAUGUGAGGAUAUCGGCUGGACCGUGUUGGCUUGCUUUCCGAGAAGGCGCAUAGG [Exclusion 1 V50] (puzzle: Exclusion 1)

>  <apparent KD of MS2 coat protein (µM)>
0.0369

$$$$
>  <Sequence>
AAUACCGGUCUGCCUAAAGACAUGAGGAUCACCCAUGUCUGAUUCUCAACAGGCCUUUUGCUUCUCUUAACUACACA [Vetilage] (puzzle: Sensor v3, turn-off variant 1)

>  <apparent KD of MS2 coat protein (µM)>
0.0231

$$$$
>  <Sequence>
AAAACUAACACGAAAGUGUUAGAAUAAUAAGCUUGUGGUACAUGAGGAUCACCCAUGUCCUCAUAAGCUCGUCUUAU [Mat - Sensor v3 - Turn-off var 2 - D45] (puzzle: Sensor v3, turn-off variant 2)

>  <apparent KD of MS2 coat protein (µM)>
0.0464

$$$$
>  <Sequence>
AGUAACUAUCACGAAAGUGAUAGUUACAGCAAGUGAUAAACAUGAGGAUCACCCAUGUCCUCAUUUGCUCGUCUUAU [Sensor 3 - 12] (puzzle: Sensor v3, turn-off variant 2)

>  <apparent KD of MS2 coat protein (µM)>
0.739

$$$$
>  <Sequence>
AAGAAACAUGAGGAUCACCCAUGUGAGGAUAUGAUAAAGAAAAGAAAAGAAAGAAGAAUCAGAAGGCACAAAGG [salish99-ex1_r3_031] (puzzle: Exclusion 1)

>  <apparent KD of MS2 coat protein (µM)>
0.051

$$$$
>  <Sequence>
AGUACUGACACGUUGGUGUUAGUACAAUAAGCUUGUGACACAUGAGGAUCACCCAUGUCCUCAUAAGCUCGUCUUAU [salish99_TOv2_r2_094] (puzzle: Sensor v3, turn-off variant 2)

>  <apparent KD of MS2 coat protein (µM)>
1.08

$$$$
>  <Sequence>
GCAGGAUAAGUGAGGAUAUACCUAUGGAUACAUAGGUAGAAGGCACAUGAGGAUCACCCAUGUUCCUUGCCUGC [Fiskers BMX 4 - 67] (puzzle: Brourd's mod of Exclusion 4)

>  <apparent KD of MS2 coat protein (µM)>
0.0132

$$$$
>  <Sequence>
GAUUAGUGAGGAUAUGGUAAAGAUAAGAUGAUGAAAGAACUCCAGAAGGCACAUGAGGAUCACCCAUGUAGUAG [Mat - Exclusion 4 - Mod of JL - D21] (puzzle: Exclusion 4)

>  <apparent KD of MS2 coat protein (µM)>
0.0204

$$$$
>  <Sequence>
UCUGGUCGGAAGGAUAUGGUCGGGUCAAAUCGGCCAGAAGGUCUGACAUGAGGAUCACCCAUGUGAGUCCAAAG [Esceus] (puzzle: Exclusion 6)

>  <apparent KD of MS2 coat protein (µM)>
0.0216

$$$$
>  <Sequence>
GUGUUGGUAGGAUAUCCACCGACAAACAUGAGGAUCACCCAUGUGACGCUCCCUUGUCUUGGAGAAGGGCCGGCAU [Riritequla] (puzzle: Exclusion 5)

>  <apparent KD of MS2 coat protein (µM)>
0.0424

$$$$
>  <Sequence>
GAUUACUGCAAGCUUUGGAACAUGAGGAUCACCCAUGUUCGUCUUAUUGAUCUAGGUACGCUGACGUACCUAGAUCU [JL-sv1-2.30 Brourd mod] (puzzle: Sensor v3, turn-off variant 1)

>  <apparent KD of MS2 coat protein (µM)>
0.0162

$$$$
>  <Sequence>
GGAAGUAGAAACCGAUCCUACAUGAGGAUCACCCAUGUAGCAAGACGUGCACGCGAAGCUCGUCAGACUACCAGAAC [salish99_TOv1_r3_012] (puzzle: Sensor v3, turn-off variant 1)

>  <apparent KD of MS2 coat protein (µM)>
0.383

$$$$
>  <Sequence>
AAAGGCUAAGGAUAUGCACACAUAAACAUGAGGAUCACCCAUGUGUUCCCAGCAACCAUAGCAGAAGGUAGCGAAA [Rarebeve] (puzzle: Exclusion 5)

>  <apparent KD of MS2 coat protein (µM)>
0.0701

$$$$
>  <Sequence>
AUAACAAGCUUUUUGUUCGUAGAACAUGACGCUCGAGUCACAUGAGGAUCACCCAUGUCAUCCAGAUUGAUAGUUGA [JR_SV3TOV2_Sub059] (puzzle: Sensor v3, turn-off variant 2)

>  <apparent KD of MS2 coat protein (µM)>
0.0473

$$$$
>  <Sequence>
AAAGAAGAGAGAAAAUAACACAUGAGGAUCACCCAUGUGAGAAGAUGAGGGUGAUACAGGCUAUAUGCUCGUCUUAU (puzzle: Sensor v3, turn-off variant 1)

>  <apparent KD of MS2 coat protein (µM)>
0.35

$$$$
>  <Sequence>
UGGUGGAAGCAGGAUAUGCUUGUUUUAUUGAUUGCAGAAGGGCUAACAUGAGGAUCACCCAUGUAAGAGGUGUU [JR_E6_Sub055] (puzzle: Exclusion 6)

>  <apparent KD of MS2 coat protein (µM)>
0.303

$$$$
